- assay: in vitro
- recorded conditions: human, mt-4 cells

compound: Cc1cn([C@H]2C[C@H](N=[N+]=[N-])[C@@H](CO)O2)c(=O)[nH]c1=O [Azidothymidine, azidothymidine]
viability: 17.5%

src = patent US5932717A
